Below is a list of entries, each paired with its recorded pKd value.
# test.system: T1, recombinant Trypanosoma cruzi trans-sialidase TcTS611/2 (Trypanosoma cruzi, clone TcTS611/2 …, UniProt Q26966)
# T1 construct: Trypanosoma cruzi trans-sialidase (TcTS), clone 611/2: entire globular core of TcTS without SAPA repeats; also called recombinant TcTS; pTrcTS611/2
# assay.details: IAsys biosensor
# details: both partners purified
API: returns pKd as number; meaning -log10 of concentration in mol/L.

As a guide, the following entries are already answered.
>>> val("VHHSI57 (VHH, also called clone SI57; not shown: His6, C-terminal, kept) VHH: GGGLVQAGGSLRLSCAASGRTLYNYAMGWFRQAPGKEREFVAAISWSGGSTEYADSVKGRFTISRANAQNKVYLQMNSLKPEDTAVYYCAADADAQPMGVIENYDYWGQG")
7.06
>>> val("VHHSI96 (VHH, also called clone SI96; not shown: His6, C-terminal, kept) VHH: GGGLVQAGGSLRLSCAASGPTFYNYAMGWFRQAPGKEREFVAAISWSGGSTYYADSVKGRFTISRANAHNTVYLQMNSLKPEDTAVYYCAADADAQPMGIIENYDYWGQG")
7.31
>>> val("VHHSI52 (VHH, also called clone SI52; not shown: His6, C-terminal, kept) VHH: GGGLVQAGGSLRLSCAASGRTFYNYAMGWFRQAPGKEREFVAAISWSGGSTLYTDSVKGRFTISRANGQNTVYLQMNSLKPEDTAVYYCAADADAQPMGIIENYDYWGQG")
7.16

Ask: Please report the recorded pKd for VHHSI14 (VHH, also called clone SI14; VHHS14; not shown: His6, C-terminal, kept) VHH: GGGLVQAGGSLRLSCAASGRTFYNYAMGWFRQAPGKEREFVAAISWSGGSTLYADSVKGRFTISRANAQNTVYLQMNKLKPEDTAVYYCAADADAQPMGVIENYDYWGQG .
Reply: 7.65

These data points were gathered from paper PMC2568053.
